system: Escherichia coli TOP10; test: shrunken log2 fold change of peptide-encoding DNA abundance (4.5 h post-induction vs induction); higher = less antimicrobial activity (less host growth inhibition); details: time post-induction: 4.5 h; library: site-saturation at positions 5, 18, 19, 20
reportedEndpoint: shrunken log2 fold change

1. RRIRNRPPRLPRPRPRPSSHPRP -0.0939

I need shrunken log2 fold change for every entry listed below, if you could help.
1. RRIRHRPPRLPRPRPRPDMFPRP
2. RRIRMRPPRLPRPRPRPNMQPRP

1: -0.0749; 2: 0.0607

====

Kindly supply the reported shrunken log2 fold change values for the records listed here.
system: Escherichia coli TOP10; experiment: shrunken log2 fold change of peptide-encoding DNA abundance (4.5 h post-induction vs induction); higher = less antimicrobial activity (less host growth inhibition); details: time post-induction: 4.5 h; library: site-saturation at positions 5, 18, 19, 20;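 note: peptides expressed intracellularly from a pBAD plasmid library in pooled LB shake-flask culture, induced with 0.3% L-arabinose, DNA abundance read by NGS, three biological replicates, DESeq2 with apeglm shrinkage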

Sample records with shrunken log2 fold change:
1) RRIRLRPPRLPRPRPRPTEQPRP 0.0272
2) RRIRIRPPRLPRPRPRPGLAPRP 0.201
3) RRIRARPPRLPRPRPRPQLYPRP 0.0997
4) RRIRYRPPRLPRPRPRPFWSPRP -0.363
5) RRIRPRPPRLPRPRPRPQHPPRP 0.0328

I need shrunken log2 fold change for every entry listed below, if you could help.
1. RRIRPRPPRLPRPRPRPICYPRP
2. RRIRCRPPRLPRPRPRPEKLPRP
3. RRIRARPPRLPRPRPRPASVPRP
4. RRIRVRPPRLPRPRPRPMHNPRP
5. RRIRFRPPRLPRPRPRPSIWPRP
6. RRIRWRPPRLPRPRPRPQMRPRP
7. RRIRFRPPRLPRPRPRPCYNPRP
8. RRIRVRPPRLPRPRPRPTNKPRP

1. -0.407
2. -0.077
3. 0.261
4. -0.268
5. -0.111
6. 0.147
7. -0.255
8. -0.254

I need shrunken log2 fold change for every entry listed below, if you could help.
1. RRIRWRPPRLPRPRPRPWFPPRP
2. RRIRSRPPRLPRPRPRPCGYPRP

-0.0213
-0.00214
